Just for reference, the supplement of paper PMC9112550 is where these values come from.

Parameter: shrunken log2 fold change. Scope: all listed entries.
# Tested on: Escherichia coli TOP10;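 note: peptides expressed intracellularly from a pBAD plasmid library in pooled LB shake-flask culture, induced with 0.3% L-arabinose, DNA abundance read by NGS, three biological replicates, DESeq2 with apeglm shrinkage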
# Test Description: shrunken log2 fold change of peptide-encoding DNA abundance (4.5 h post-induction vs induction); higher = less antimicrobial activity (less host growth inhibition)
# Assay Context: time post-induction: 4.5 h; library: site-saturation at positions 5, 18, 19, 20
Metric: shrunken log2 fold change

Sequence Data: RRIRCRPPRLPRPRPRPFTPPRP
Metric: shrunken log2 fold change
Quantitative Readout: -0.497
--
Sequence Data: RRIRPRPPRLPRPRPRPTWMPRP
Metric: shrunken log2 fold change
Quantitative Readout: -0.0166
--
Sequence Data: RRIRNRPPRLPRPRPRPTWQPRP
Metric: shrunken log2 fold change
Quantitative Readout: 0.0252
--
Sequence Data: RRIRSRPPRLPRPRPRPNLQPRP
Metric: shrunken log2 fold change
Quantitative Readout: -0.141
--
Sequence Data: RRIRYRPPRLPRPRPRPNKGPRP
Metric: shrunken log2 fold change
Quantitative Readout: -0.618
--
Sequence Data: RRIRRRPPRLPRPRPRPHMNPRP
Metric: shrunken log2 fold change
Quantitative Readout: -0.315
--
Sequence Data: RRIRVRPPRLPRPRPRPDTKPRP
Metric: shrunken log2 fold change
Quantitative Readout: -0.26
--
Sequence Data: RRIRLRPPRLPRPRPRPNRAPRP
Metric: shrunken log2 fold change
Quantitative Readout: 0.0133
--
Sequence Data: RRIRFRPPRLPRPRPRPMGLPRP
Metric: shrunken log2 fold change
Quantitative Readout: -0.00847
--
Sequence Data: RRIRHRPPRLPRPRPRPMRGPRP
Metric: shrunken log2 fold change
Quantitative Readout: 0.384
--
Sequence Data: RRIRRRPPRLPRPRPRPDQGPRP
Metric: shrunken log2 fold change
Quantitative Readout: -0.0712
--
Sequence Data: RRIRGRPPRLPRPRPRPHHDPRP
Metric: shrunken log2 fold change
Quantitative Readout: -0.102
--
Sequence Data: RRIRIRPPRLPRPRPRPLRIPRP
Metric: shrunken log2 fold change
Quantitative Readout: -0.346
--
Sequence Data: RRIRWRPPRLPRPRPRPPYVPRP
Metric: shrunken log2 fold change
Quantitative Readout: -0.284
--
Sequence Data: RRIRGRPPRLPRPRPRPDWEPRP
Metric: shrunken log2 fold change
Quantitative Readout: 0.166
--
Sequence Data: RRIRQRPPRLPRPRPRPVWCPRP
Metric: shrunken log2 fold change
Quantitative Readout: 0.0608
--
Sequence Data: RRIRFRPPRLPRPRPRPTRTPRP
Metric: shrunken log2 fold change
Quantitative Readout: 0.326
--
Sequence Data: RRIRLRPPRLPRPRPRPHPWPRP
Metric: shrunken log2 fold change
Quantitative Readout: -0.0939
--
Sequence Data: RRIRKRPPRLPRPRPRPFMKPRP
Metric: shrunken log2 fold change
Quantitative Readout: -0.157
--
Sequence Data: RRIRPRPPRLPRPRPRPCGRPRP
Metric: shrunken log2 fold change
Quantitative Readout: 0.302
--
Sequence Data: RRIRCRPPRLPRPRPRPMMHPRP
Metric: shrunken log2 fold change
Quantitative Readout: -0.175
